Test system: SK-MEL-5 melanoma
Assay: NCI-60 one-dose screen, 48 h (100 = growth as untreated, 0 = no growth, -100 = all killed)
Settings: 10 µM unless noted
Compounds without any hit were thinned out: in the full panel of roughly 83,000, 20% have a hit.
measure_name: growth (%)
Express the result in % but write the number alone.

input: Determine from records and report growth for OCc1n(Cc2ccc3ccccc3c2)cc[n+]1Cc1ccc2ccccc2c1
output: -28

input: Determine from records and report growth for NS(=O)(=O)c1ccc(N2CC(c3nc4ccccc4[nH]3)CC2=O)cc1 (stereo unspecified)
output: 99.8

input: Determine from records and report growth for O=C1OC2(c3ccccc31)c1ccccc1-c1ccccc12
output: 78.9

input: Determine from records and report growth for Cc1[nH]cnc1/C=C1\SC(N2CCCCC2)=NC1=O
output: 103

input: Determine from records and report growth for N#Cc1c(-c2ccccc2)cc(-c2ccccc2)n(CCCCCCC(=O)O)c1=O
output: 99.8

input: Determine from records and report growth for COc1ccc(-c2nc3sc4c(c3c(=O)[nH]2)CCCCCC4)cc1
output: 53.1

input: Determine from records and report growth for O=C(Nc1ccc(Cl)cc1)Nc1ccccc1CNc1nc(Nc2ccc(OCCN3CCCC3)cc2)ncc1Cl
output: 50.2

input: Determine from records and report growth for CCOC(=O)N1CCC(N=C2CSc3nnc(-c4cc(C(F)(F)F)cc(C(F)(F)F)c4)n3N2)CC1
output: -67.5

input: Determine from records and report growth for c1ccc(-c2oc(-c3ccccc3)c3ccccc23)cc1
output: 104

input: Determine from records and report growth for Nc1ccccc1-c1ccn[nH]1
output: 96.6

input: Determine from records and report growth for O=c1oc2c(cc1-c1ccc([N+](=O)[O-])cc1)C(O)Oc1ccccc1-2 (stereo unspecified)
output: 80.4

---

System: EKVX NSCLC
Assay: NCI-60 one-dose screen, 48 h
Conditions: 10 µM unless noted
The panel holds about 83,000 compounds, 20% with a hit somewhere; the sample as a whole holds those more often. Calls of active or inactive are those of the source. Rule for the calls: active = growth percent below 10; inactive = the rest.
// allowed return values: yes (active), no (inactive)

input: What is the recorded call for this molecule in the test? CC[C@@H](C)/C=C(C)/C=C/C(=O)c1c(O)c(-c2ccc(O)cc2)cn(OC2CC(=O)CCC(C)OC(=O)CC2O)c1=O (stereo not given in full)
output: yes

input: What is the recorded call for this molecule in the test? CCSCC1CC(O)(c2ccccc2)C(c2ccccc2)C(c2ccc(Cl)cc2)O1 (stereo not given)
output: yes

input: What is the recorded call for this molecule in the test? O=c1ccn(C2CC=C(CO)O2)c(=O)[nH]1 (stereo not given)
output: no

input: What is the recorded call for this molecule in the test? O=C(Nc1ccccc1OC(=O)c1ccccc1)c1ccccc1
output: no

input: What is the recorded call for this molecule in the test? O=C(c1ccccc1)C(CN1CCCCC1)c1ccccc1 (stereo not given)
output: no

---

System: UACC-62 melanoma
Assay: NCI-60 one-dose screen, 48 h (100 = growth as untreated, 0 = no growth, -100 = all killed)
Conditions: 10 µM unless noted
This is part of a sample that, as a whole, favours compounds with a hit. Of some 83,000 tested, about 20% had one in any assay. Activity calls are given as the source filed them. The calls were made as follows: active = growth percent below 10; inactive = the rest.
measure_name: growth

input: Determine from records and report growth for COc1cc(C(=O)c2cc3c(cc2C)OCO3)cc(OC)c1OC
output: 32.7% (inactive)

input: Determine from records and report growth for COc1ccc(-c2cc(-c3nnc(SCC(=O)Nc4ccc(C(C)=O)cc4)n3-c3ccccc3)c3ccccc3n2)cc1OC
output: 111% (inactive)

input: Determine from records and report growth for C[N+]1(C)C2CC[C@@H]1CC(OC(=O)C(O)c1ccccc1)C2 (stereo partly specified)
output: 102% (inactive)

input: Determine from records and report growth for COc1cc(-c2nc3sc4c(c3c(=O)[nH]2)CCCCCC4)cc(OC)c1OC
output: 19.1% (inactive)

input: Determine from records and report growth for Cn1ccnc1C(=O)/C=C/c1ccc(C(=O)Nc2nc3ccccc3[nH]2)cc1
output: 74.7% (inactive)

input: Determine from records and report growth for C/C(=C\CCc1ccoc1)CC/C=C(\C)CCCC1COC(=O)C1 (stereo unspecified)
output: 80% (inactive)

input: Determine from records and report growth for C=CCNC(=O)/C(=C/c1cccc([N+](=O)[O-])c1)NC(=O)c1ccccc1
output: 95.3% (inactive)

input: Determine from records and report growth for CCCCCCCCCCOC(C)=O
output: 103% (inactive)

input: Determine from records and report growth for CCC(=O)Nc1cc2c(cc1Cl)-c1ccccc1C2
output: 84.8% (inactive)

input: Determine from records and report growth for COc1ccc(/C=C2\CCc3ccccc3C2=O)cc1
output: 83% (inactive)

input: Determine from records and report growth for CC(=O)Nc1cc2c3c(cccc3c1)-c1ccccc1-2
output: 89% (inactive)

input: Determine from records and report growth for O=C(COc1ccc(/C=C2\Cc3ccccc3C2=O)cc1)c1ccc(Cl)cc1
output: 95.2% (inactive)

input: Determine from records and report growth for CC[C@@H](c1ccc(O)c(O)c1)[C@@H](CC)c1ccc(O)c(O)c1
output: 64.5% (inactive)

input: Determine from records and report growth for CCOC(=O)/C(=C/CC/C(C)=C/CC/C(C)=C/CCc1ccoc1)CC(=O)N1CCCCC1
output: 23.8% (inactive)

input: Determine from records and report growth for Cc1cc(Cl)ccc1Nc1nc(C(F)(F)F)ccc1C(=O)N/N=C/c1ccc(Cl)cc1
output: -0.152% (active)

input: Determine from records and report growth for COc1ccccc1-n1c(-c2ccc(O)cc2C)cn2c3c(=O)[nH]c(=O)n(C)c3nc12
output: 76.6% (inactive)

input: Determine from records and report growth for CCOC(CNCc1cc(C)c2[nH]c3ccccc3c2c1C)OCC
output: 77.9% (inactive)

input: Determine from records and report growth for CCOC(=O)C(Br)=P(c1ccccc1)(c1ccccc1)c1ccccc1
output: 92.8% (inactive)

input: Determine from records and report growth for NC(=O)c1cc(Cl)ccc1NC(=O)c1ccccc1-c1ccccc1
output: 18.6% (inactive)

input: Determine from records and report growth for COC(=O)c1cc2c(/C=C3/NC(=S)NC3=O)coc2n1C
output: 86.6% (inactive)

input: Determine from records and report growth for C[C@]12CCC(=O)C=C1CCC1C2[C@@H](O)C[C@@]2(C)C1CC[C@]2(O)C(=O)COC(=O)CCC(=O)O (stereo partly specified)
output: 106% (inactive)

input: Determine from records and report growth for OCc1n(Cc2ccc3ccccc3c2)cc[n+]1Cc1ccc2ccccc2c1
output: 12.8% (inactive)

input: Determine from records and report growth for CCOC(=O)c1cc2oc(/C=C/c3cc(=O)c4cc(Cl)ccc4o3)cc2[nH]1
output: 75.8% (inactive)

input: Determine from records and report growth for O=C(c1ccccc1)c1ccc(Oc2ccc([N+](=O)[O-])cc2[N+](=O)[O-])cc1
output: 62% (inactive)

input: Determine from records and report growth for CC(C)CNc1nc(N=[N+]=[N-])nc(NCC(C)C)n1
output: 59.1% [100 µM] (inactive)

input: Determine from records and report growth for CC[N+](CCCCCCCCCC[N+](CC)(c1ccccn1)c1ccccn1)(c1ccccn1)c1ccccn1
output: 0.363% (active)

input: Determine from records and report growth for CC(=O)c1nn(-c2ccccc2)c(=Nc2ccccc2)cc1C
output: 94.8% (inactive)

input: Determine from records and report growth for C[C@]12CCC(=O)C=C1CC[C@H]1[C@@H]3C[C@@H](O)[C@](O)(C(=O)CO)[C@@]3(C)C[C@H](O)[C@@]12F
output: 98% (inactive)

input: Determine from records and report growth for O=C(CNC(=O)c1cccc2ccccc12)Nc1ccccc1Oc1cccc(O)c1
output: 44.9% [5 µM] (inactive)

input: Determine from records and report growth for C/C(=C\CCc1ccoc1)CC/C=C(\C)CCCN1CCSCC1
output: 75.3% (inactive)

input: Determine from records and report growth for Oc1c(N=Nc2nn[nH]n2)ccc2ccccc12
output: 77% (inactive)

input: Determine from records and report growth for N#CC1c2ccccc2C=CN1C(=O)N(c1ccccc1)c1ccccc1 (stereo unspecified)
output: 61.2% (inactive)

input: Determine from records and report growth for CCCCCc1c(C)[nH]c(/C=C2\N=C(c3ccc[nH]3)C=C2OCc2ccccc2)c1C
output: -92.7% [100 µM] (active)

input: Determine from records and report growth for C[C@@H]1C[C@@H]([C@@H](CC2CC(=O)NC(=O)C2)OC(=O)CC(=O)c2ccccc2)C(=O)[C@@H](C)C1
output: 11.2% (inactive)

input: Determine from records and report growth for O=C1CSC(c2ccccc2Cl)N1c1nnc(Cn2nnc3ccccc32)o1 (stereo unspecified)
output: 63.8% (inactive)

input: Determine from records and report growth for COc1ccc2c(c1)sc1nc(-c3ccc(N(C)C)cc3)cn12
output: 104% (inactive)

input: Determine from records and report growth for COc1ccc(C2=NN(C(C)=O)C(c3cccc(Nc4ccnc5cc(Cl)ccc45)c3)C2)cc1 (stereo unspecified)
output: 68.6% (inactive)

input: Determine from records and report growth for CN1CCN(CCCOc2ccc3ncnc(Nc4ccc(OCc5cccc(F)c5)c(Cl)c4)c3c2)CC1
output: -57.8% (active)

input: Determine from records and report growth for CCCCCCCCCCNCCSS(=O)(=O)O
output: 4.6% (active)

input: Determine from records and report growth for O=C(Nc1nc(-c2ccc(Cl)cc2)cs1)c1cc(-c2ccc(Br)cc2)nc2ccc(Cl)cc12
output: 42% (inactive)

input: Determine from records and report growth for Cc1ccc(-c2c3c(N)c4c(nc3nc3c2c(C)nn3-c2ccccc2)CCC4)cc1
output: 99.8% (inactive)
